Target under test: T1, recombinant rat CTGF protein (R&D Systems) (rat, UniProt Q9R1E9 25-347)
T1 construct: Bought; also called rCTGF
T1 sequence: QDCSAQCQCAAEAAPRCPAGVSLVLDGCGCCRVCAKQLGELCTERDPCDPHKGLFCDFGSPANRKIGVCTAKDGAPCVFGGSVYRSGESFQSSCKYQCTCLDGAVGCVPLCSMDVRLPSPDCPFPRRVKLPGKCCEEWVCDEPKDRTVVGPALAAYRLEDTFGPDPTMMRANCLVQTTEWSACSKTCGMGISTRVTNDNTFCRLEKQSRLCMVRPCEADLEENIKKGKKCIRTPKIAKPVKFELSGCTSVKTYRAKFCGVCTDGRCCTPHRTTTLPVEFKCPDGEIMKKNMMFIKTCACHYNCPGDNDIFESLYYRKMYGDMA
Measurement notes: SPR (Biacore)
Method: The binding of exemplary lipocalin muteins to human (Creative Biomart), cynomolgus, rat (R&D Systems) and mouse CTGF (Abbexa) was determined by SPR using a Biacore instrument (Cytiva, formerly GE Healthcare). Some targets were fused to a human IgG1 Fc tag, and captured via the anti-human IgG antibody kit, others were directly immobilized. For some measurements, human CTGF with a human IgG1 Fc Tag or rat or murine CTGF without a tag were directly immobilized to a CM5 Chip. […]
Measured kon accompanies every entry in the list below.
API: value field is a number in M⁻¹ s⁻¹; no unit string.

I would be grateful if you could share the reported kon for lipocalin mutein of SEQ ID NO: 24 (designed binder, also called hNGAL mutein) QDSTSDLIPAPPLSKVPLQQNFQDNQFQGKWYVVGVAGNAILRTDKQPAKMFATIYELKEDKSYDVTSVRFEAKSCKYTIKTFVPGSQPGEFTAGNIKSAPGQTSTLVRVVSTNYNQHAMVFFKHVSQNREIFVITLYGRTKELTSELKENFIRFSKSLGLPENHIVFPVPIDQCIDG . 138000

Lookup lipocalin mutein of SEQ ID NO: 25 (designed binder, Parent hNGAL mutein; also called hNGAL mutein) QDSTSDLIPAPPLSKVPLQQNFQDNQFHGKWYVVGMAGNFRLREDKDPSKMGATIYELKEDKSYNVTQVQFDDKKCLYVIETFVPGSQPGEFTLGAIKSFPGFTSQLVRVVSTNYNQHAMVFFKKVYQNREVFWITLYGRTKELTSELKENFIRFSKSLGLPENHIVFPVPIDQCIDGSAWSHPQFEK 46500

// next record lipocalin mutein of SEQ ID NO: 5 (designed binder, also called hNGAL mutein; not shown: C-terminal His-tag) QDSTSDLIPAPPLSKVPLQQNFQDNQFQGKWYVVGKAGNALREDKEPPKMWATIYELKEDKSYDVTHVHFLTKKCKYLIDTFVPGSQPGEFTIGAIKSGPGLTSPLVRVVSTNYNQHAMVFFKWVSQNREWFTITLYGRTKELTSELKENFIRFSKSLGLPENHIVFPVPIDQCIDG 294000
